I'd appreciate it if you could supply IC50 values for the items below.
experimental_system: T1, human LILRB1 expressed on cells (human, UniProt Q8NHL6 24-650)
T1 construct: In 293T cells it was expressed from pCMV3-LILRB1-GFP; also called CHO-LILRB1; Jurkat-LILRB1
T1 sequence (Q8NHL6 other isoform, or with tags, fused parts or gaps limits assumed): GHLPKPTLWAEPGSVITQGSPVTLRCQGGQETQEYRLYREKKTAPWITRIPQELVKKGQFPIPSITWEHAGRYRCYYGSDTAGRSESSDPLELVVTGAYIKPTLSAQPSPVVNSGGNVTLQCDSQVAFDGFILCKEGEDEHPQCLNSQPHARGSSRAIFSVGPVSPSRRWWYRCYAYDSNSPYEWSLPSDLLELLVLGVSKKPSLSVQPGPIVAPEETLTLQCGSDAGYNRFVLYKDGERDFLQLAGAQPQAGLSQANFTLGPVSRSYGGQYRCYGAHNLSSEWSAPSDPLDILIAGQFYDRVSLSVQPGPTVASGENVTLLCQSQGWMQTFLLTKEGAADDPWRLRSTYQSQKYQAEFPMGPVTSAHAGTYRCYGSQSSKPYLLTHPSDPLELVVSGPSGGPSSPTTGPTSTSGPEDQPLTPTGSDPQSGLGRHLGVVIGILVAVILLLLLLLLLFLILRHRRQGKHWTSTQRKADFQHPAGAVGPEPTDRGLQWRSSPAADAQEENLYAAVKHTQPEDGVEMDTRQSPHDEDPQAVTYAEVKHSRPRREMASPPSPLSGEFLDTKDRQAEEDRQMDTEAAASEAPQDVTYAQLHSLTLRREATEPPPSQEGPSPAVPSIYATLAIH
experiment_notes: flow cytometry, Jurkat-LILRB1 cells; blocked ligand: APC HLA-G trimer tetramer
Write your answer as a measured quantity: the number, then the unit.

Consider the worked cases shown below.
binder	IC50
D2M002-126 (antibody, V domains shown, Humanized and optimized variant of D2M002-026) VH: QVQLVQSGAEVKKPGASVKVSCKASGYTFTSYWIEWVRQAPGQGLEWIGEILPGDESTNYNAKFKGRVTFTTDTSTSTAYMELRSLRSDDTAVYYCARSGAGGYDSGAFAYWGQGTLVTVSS VL: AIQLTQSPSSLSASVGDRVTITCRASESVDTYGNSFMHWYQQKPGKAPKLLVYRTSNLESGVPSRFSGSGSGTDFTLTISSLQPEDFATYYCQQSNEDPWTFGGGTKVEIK	0.304 µg/mL
D2M002-124 (antibody, V domains shown) VH: QVQLVQSGAEVKKPGASVKVSCKASGYTFTSYWIEWVRQAPGQGLEWIGEILPGSGSTNYNAKFKGRVTFTTDTSTSTAYMELRSLRSDDTAVYYCARSGAGGYDSGAFAYWGQGTLVTVSS VL: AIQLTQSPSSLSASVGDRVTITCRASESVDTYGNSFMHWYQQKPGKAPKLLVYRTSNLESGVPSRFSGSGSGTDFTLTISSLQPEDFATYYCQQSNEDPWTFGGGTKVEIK	0.427 µg/mL
D2M002-026 (antibody, V domains shown, Hit; also called clone #26) VH: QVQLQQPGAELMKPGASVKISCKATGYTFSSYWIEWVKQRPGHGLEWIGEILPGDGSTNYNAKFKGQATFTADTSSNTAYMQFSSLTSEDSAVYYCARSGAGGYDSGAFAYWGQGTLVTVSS VL: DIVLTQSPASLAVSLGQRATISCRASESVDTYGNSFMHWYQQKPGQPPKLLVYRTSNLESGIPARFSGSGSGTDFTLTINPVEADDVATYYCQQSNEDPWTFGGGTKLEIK	0.34 µg/mL

In the following, a different binder is considered.
Look up IC50: D2M002-103 (antibody, V domains shown, also called P212_F01) VH: QVQLVQSGAEVKKPGASVKVSCKASGYTFTRYVMHWVRQAPGQRLEWMGWINPNNEETKYSQKFKGRVTLTRDTSASTAYMELSSLRSEDTAVYYCARADLEILPYYDHARYAMDYWGQGTLVTVSS VL: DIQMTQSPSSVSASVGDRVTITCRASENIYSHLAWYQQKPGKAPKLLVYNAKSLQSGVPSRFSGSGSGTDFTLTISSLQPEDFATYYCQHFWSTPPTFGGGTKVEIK 0.07 µg/mL
